# Test system: NCI/ADR-RES ovarian
# protocol.details: NCI-60 one-dose screen, 48 h
# measurement.conditions: 10 µM unless noted
This is part of a sample that, as a whole, favours compounds with a hit. Of some 83,000 tested, about 20% had one in any assay. Calls of active or inactive are those of the source. Rule for the calls: active = growth percent below 10; inactive = the rest.
Labels: active, inactive

> print(dat)
                                   compound  assigned.class
1  Cc1ccc([C@H]2C(C(=O)c3ccc(Cl)cc3)C3(N[C@@H]2c2ccccc2)C(=O)Nc2ccc(Br)cc23)cc1 (some centres undefined)        inactive
2  COc1ccc(CCC2c3c(cc4c(c3OC)OCO4)CCN2C)cc1 (centres undefined)          active
3  CCOc1ccc(C(=O)NC(=S)Nc2ccc(S(N)(=O)=O)cc2)cc1        inactive
4  CN(C)c1ccnc(CNCCSC2(c3ccc(C(F)(F)F)cc3)c3ccccc3C=Cc3ccccc32)c1          active
5  CCN1C(=O)/C(=N\N=C(/C)c2ccc3c(c2)Nc2ccccc2S3)c2cc(Cl)ccc21        inactive
6  COc1cc(C2CC(c3cc(OC)c(OC)c(OC)c3)=Nc3c(N)nc(N)nc3N2)ccc1Oc1nc(NCCO)nc(N2CCOCC2)n1 (centres undefined)        inactive
7  NS(=O)(=O)c1ccc(CCNC(=O)CSc2ccc(-c3ccc(Br)cc3)nn2)cc1        inactive
8  O=c1[nH]c2ccc(Cl)cc2cc1CSc1nccc(-c2ccc(Cl)cc2)n1        inactive
9  Cc1ccc2c(N)c(C(=O)Nc3ccc(-c4ccccc4)cc3)sc2n1        inactive
